# subject_of_test: T1, human high affinity trimeric IL-2 receptor (CD25/CD122/CD132) (human, UniProt P01589 22-272; P14784 27-551; P31785 23-369)
# T1 sequence 1: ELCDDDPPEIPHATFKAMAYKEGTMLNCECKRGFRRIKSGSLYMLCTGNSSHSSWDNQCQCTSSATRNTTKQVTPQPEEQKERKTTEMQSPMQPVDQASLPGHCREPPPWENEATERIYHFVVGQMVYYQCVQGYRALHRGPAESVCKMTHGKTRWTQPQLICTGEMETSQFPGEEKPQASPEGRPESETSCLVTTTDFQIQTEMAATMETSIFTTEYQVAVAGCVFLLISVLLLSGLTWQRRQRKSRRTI
# T1 sequence 2: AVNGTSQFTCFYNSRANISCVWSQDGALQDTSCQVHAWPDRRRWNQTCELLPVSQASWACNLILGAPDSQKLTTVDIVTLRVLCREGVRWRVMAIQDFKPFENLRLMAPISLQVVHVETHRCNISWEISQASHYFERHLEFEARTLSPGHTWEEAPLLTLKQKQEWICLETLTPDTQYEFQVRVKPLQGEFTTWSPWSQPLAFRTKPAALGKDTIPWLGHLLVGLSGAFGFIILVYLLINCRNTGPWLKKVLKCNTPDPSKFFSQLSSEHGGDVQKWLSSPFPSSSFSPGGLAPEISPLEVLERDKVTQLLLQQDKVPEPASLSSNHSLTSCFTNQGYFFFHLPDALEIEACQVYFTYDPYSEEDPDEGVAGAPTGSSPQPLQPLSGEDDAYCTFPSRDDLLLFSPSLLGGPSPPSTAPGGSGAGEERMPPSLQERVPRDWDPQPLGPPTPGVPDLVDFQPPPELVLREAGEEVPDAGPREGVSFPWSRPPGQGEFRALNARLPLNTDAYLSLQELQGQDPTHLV
# T1 sequence 3: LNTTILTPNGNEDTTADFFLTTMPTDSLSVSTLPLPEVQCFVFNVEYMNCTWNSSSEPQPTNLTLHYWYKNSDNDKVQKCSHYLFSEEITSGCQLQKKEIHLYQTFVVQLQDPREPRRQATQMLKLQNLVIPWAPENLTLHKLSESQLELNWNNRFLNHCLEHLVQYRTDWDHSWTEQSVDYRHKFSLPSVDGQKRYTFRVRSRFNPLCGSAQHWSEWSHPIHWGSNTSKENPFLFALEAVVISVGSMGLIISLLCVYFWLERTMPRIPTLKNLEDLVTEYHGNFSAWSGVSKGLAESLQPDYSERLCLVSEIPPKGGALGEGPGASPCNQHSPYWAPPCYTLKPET
# procedure_details: cell-based or functional assay
endpoint_name: pSTAT5 ratio YT CD25/YT, dilution factor 8, lower table

P = RFH (ligand) cytokine: APTSSSTKKTQLQLEHLRLDLFMILNGINNYKNPKLTRMLTFKFYMPKKATELKHLQCLEEELKPLEEVLNLAQSKNFHLRPRDLISNINVIVLELKGSETTFMCEYADETATIVEFLNRWITFCHSIISTLT
Q = DEH (ligand) cytokine: APTSSSTKKTQLQLEHLDLDLEMILNGINNYKNPKLTRMLTFKFYMPKKATELKHLQCLEEELKPLEEVLNLAQSKNFHLRPRDLISNINVIVLELKGSETTFMCEYADETATIVEFLNRWITFCHSIISTLT
Please indicate which entry, P or Q , has the lower recorded pSTAT5 ratio YT CD25/YT, dilution factor 8, lower table value. Please reply using the label of the selected record. P
(P: 1.3, Q: 4.2)
